- measurement-target: Hexokinase-4 (Homo sapiens) + Glucokinase regulatory protein (Homo sapiens) (UniProt P35557+Q14397)
- Sequence (P35557 whole entry, looked up): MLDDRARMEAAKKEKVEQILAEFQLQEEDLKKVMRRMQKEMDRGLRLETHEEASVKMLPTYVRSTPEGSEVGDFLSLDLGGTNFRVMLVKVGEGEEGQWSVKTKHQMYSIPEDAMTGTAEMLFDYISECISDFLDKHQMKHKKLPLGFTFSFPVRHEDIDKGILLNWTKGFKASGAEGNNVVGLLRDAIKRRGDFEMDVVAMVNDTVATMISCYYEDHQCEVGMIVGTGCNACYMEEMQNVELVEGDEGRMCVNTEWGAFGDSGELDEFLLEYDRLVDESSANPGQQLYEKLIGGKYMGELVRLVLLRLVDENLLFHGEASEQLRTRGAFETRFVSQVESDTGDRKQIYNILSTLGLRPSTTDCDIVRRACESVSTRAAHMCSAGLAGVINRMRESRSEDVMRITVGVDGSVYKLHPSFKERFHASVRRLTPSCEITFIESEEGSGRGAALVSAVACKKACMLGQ
- Sequence (Q14397 whole entry, looked up): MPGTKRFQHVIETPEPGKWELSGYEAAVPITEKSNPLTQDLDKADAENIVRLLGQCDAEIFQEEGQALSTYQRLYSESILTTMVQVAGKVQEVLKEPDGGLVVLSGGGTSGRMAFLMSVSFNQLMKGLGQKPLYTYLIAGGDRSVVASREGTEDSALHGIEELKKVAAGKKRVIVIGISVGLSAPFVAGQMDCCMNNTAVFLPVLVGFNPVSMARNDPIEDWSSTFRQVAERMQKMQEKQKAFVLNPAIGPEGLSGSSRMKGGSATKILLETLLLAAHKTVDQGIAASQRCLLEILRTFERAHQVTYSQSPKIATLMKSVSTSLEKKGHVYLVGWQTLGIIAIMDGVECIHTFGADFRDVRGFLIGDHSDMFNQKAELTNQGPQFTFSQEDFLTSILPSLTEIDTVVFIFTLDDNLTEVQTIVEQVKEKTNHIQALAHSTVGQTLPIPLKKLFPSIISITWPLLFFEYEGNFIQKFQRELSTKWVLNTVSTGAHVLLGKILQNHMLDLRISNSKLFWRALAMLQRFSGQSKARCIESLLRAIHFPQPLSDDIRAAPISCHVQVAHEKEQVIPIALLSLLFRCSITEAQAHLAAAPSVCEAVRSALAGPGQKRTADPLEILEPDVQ
- method-description: qHTS assay for inhibitors of recombinant human GCK-GKRP interaction: ADP-Glo assay (AID 743206);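 note: plate controls were DMSO plus enzyme for no effect and no enzyme for full effect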
- stated-conditions: ADP-Glo luminescence, 60 min, 0% = vehicle-only wells with enzyme present; series mostly up to 76.9 µM
The source made the active and inactive calls. Calls come from the whole dose curve; as a rule, active = well fitted curve in the direction sought with a large enough effect; inconclusive = small, poorly fitted or top-dose-only effect, or another doubt; inactive = no such curve, though single readings can be large or run the other way.
recorded-endpoint: outcome

Study these solved cases before continuing.
> print(dat)
                                   molecule  recorded.endpoint  observed.value
1  CCC1(C2=NCCN2)Cc2ccccc2O1 (stereo unspecified)            outcome        inactive
2           Cc1ncc(CNC(=O)N(CCCl)N=O)c(N)n1            outcome        inactive
3  CN1C[C@H](CNC(=O)OCc2ccccc2)C[C@@H]2c3cccc4c3c(cn4C)C[C@H]21            outcome        inactive
4  CCCC(C)(COC(N)=O)COC(=O)NC(C)C (stereo unspecified)            outcome        inactive
5  O=c1[nH]c2ccccc2n1CCCN1CCC(n2c(=O)[nH]c3cc(Cl)ccc32)CC1            outcome        inactive
6  CC(=O)[C@H]1CC[C@H]2[C@@H]3CC[C@H]4C[C@H](O)CC[C@]4(C)[C@H]3C(=O)C[C@]12C            outcome        inactive

Consider the following items and state reported outcome for each.
1. O=C1NCN(c2ccccc2)C12CCN(CC1COc3ccccc3O1)CC2 (stereo unspecified)
2. CC(CCc1ccccc1)NC(C)C(O)c1ccc(O)cc1 (stereo unspecified)
3. COc1ccccc1N1CCNCC1

Output:
1: inactive; 2: inactive; 3: inactive

Need outcome for each of these molecules.
1. COc1ccc(C(CN(C)C)C2(O)CCCCC2)cc1 (stereo unspecified)
2. c1ccc(C2CC2)c(OCC2=NCCN2)c1

Output:
inactive
inactive

---

- method-description: Primary qHTS for inhibitors of SARS-S pseudo-typed particle cell entry (AID 1479145); note: nearly all actives have a fitted effect of over 45% in size
- stated-conditions: SARS-S pseudotyped particle cell entry, luciferase reporter; series mostly up to 57.1 µM
Records with an inconclusive call do not appear. Activity calls are given as the source filed them. Calls follow the shape of the full dose curve.
Answer with one of the outcomes given here: 1.0 for active, 0.0 for inactive

compound	class
C=CCN1CC[C@]23c4c5ccc(O)c4O[C@H]2C(=O)CC[C@@]3(O)[C@H]1C5	0.0

Input: Hello, I am checking results. What call was entered for CO[C@H]1C=CO[C@@]2(C)Oc3c(C)c(O)c4c(O)c(c(/C=N/N5CCN(C)CC5)c(O)c4c3C2=O)NC(=O)/C(C)=C\C=C[C@H](C)[C@H](O)[C@@H](C)[C@@H](O)[C@@H](C)[C@H](OC(C)=O)[C@@H]1C ?
Output: 0.0

Input: State the result this test recorded for CCCc1nc2c(C)cc(-c3nc4ccccc4n3C)cc2n1Cc1ccc(-c2ccccc2C(=O)O)cc1 .
Output: 0.0

Input: For Nc1nnc(-c2cccc(Cl)c2Cl)c(N)n1 , what call appears in the results of this test?
Output: 0.0

Input: So what was the verdict on Cc1ccc(-c2cc(C(F)(F)F)nn2-c2ccc(S(N)(=O)=O)cc2)cc1 in this test?
Output: 0.0

Input: Query: recorded result category for COc1ccccc1Oc1c(NS(=O)(=O)c2ccc(C(C)(C)C)cc2)nc(-c2ncccn2)nc1OCCO in this test
Output: 0.0

Input: What is the recorded call for this compound in the test? CC/C=C(\C(=O)N[C@@H]1C(=O)N2C(C(=O)OCOC(=O)C(C)(C)C)=C(COC(N)=O)CS[C@H]12)c1csc(N)n1
Output: 0.0

Input: Test call for this compound, please: Cc1ccc(S(=O)(=O)NC(=O)NN2CC3CCCC3C2)cc1 (centres undefined)
Output: 0.0

Input: Just curious, what result did Nc1nc2c(ncn2COC(CO)CO)c(=O)[nH]1 get here?
Output: 0.0

Input: // return assay outcome for CC(=O)Nc1nnc(S(N)(=O)=O)s1
Output: 0.0

Input: Please let me know the test result on file for CC1Cc2ccccc2N1NC(=O)c1ccc(Cl)c(S(N)(=O)=O)c1 (centres undefined) .
Output: 0.0

Input: Could you kindly confirm the outcome this assay logged for COc1ccc(Cc2nccc3cc(OC)c(OC)cc23)cc1OC ?
Output: 1.0

Input: Called result for CC(C)NCC(O)COc1ccc(CCOCC2CC2)cc1 (centres undefined)
Output: 0.0

Input: Can you look up the reported call for Oc1ccc(Cl)cc1Cc1ccccc1 for me?
Output: 0.0

Input: Hey, what did the test say about Cn1cc(C2=C(c3cn(C4CCN(Cc5ccccn5)CC4)c4ccccc34)C(=O)NC2=O)c2ccccc21 ?
Output: 0.0

Input: What classification did CC1=C(C(=O)O)N2C(=O)[C@@H](NC(=O)[C@H](N)c3ccc(O)cc3)[C@H]2SC1 end up with in this test?
Output: 0.0

---

- method-description: Cell Viability - SH-SY5Y (AID 544);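 note: cells exposed to compound for 40 hours; 0% = DMSO alone and -100% = 100 µM tamoxifen; nearly all actives have a fitted effect of over 55% in size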
- stated-conditions: SH-SY5Y neuroblastoma cell viability; at 92.2 µM (top of the series)
Inconclusive results are not listed. Activity calls are given as the source filed them. Calls come from the whole dose curve; as a rule, active = well fitted cell-killing curve with a large enough effect; inconclusive = small, poorly fitted or top-dose-only effect; inactive = flat fitted curve, though single readings scatter.
The reply should be one of these categories: active, inactive

# count of solved cases: 3
> print(dat)
                                   molecule     class
1     NCC(O)c1ccc(O)cc1 (centres undefined)  inactive
2  Clc1ccc(COC(Cn2ccnc2)c2ccc(Cl)cc2Cl)cc1 (centres undefined)    active
3                    c1ccc2c(c1)Nc1ccccc1S2  inactive

Now look at this entry.
Input: How did this test come out for CNCC(O)c1ccc(O)cc1 (centres undefined) ?
Output: inactive

---

- System: UISO
- method-description: qHTS assay to identify novel small-molecules to repurpose for Merkel cell carcinoma treatment (AID 1296009); note: nearly all actives have a fitted effect of over 60% in size
- stated-conditions: MCC and control cell lines, CellTiter-Glo viability, 72 h; series mostly up to 46 µM
Results filed as inconclusive are left out. Active and inactive are the calls of the source. The call rests on the fitted dose curve; in most records, active means well fitted inhibition curve with a large enough effect; inconclusive means small, poorly fitted or top-dose-only effect; inactive means flat fitted curve, though single readings scatter.
Result category, one only: active, inactive

Input: // return assay outcome for Clc1ccc(COC(Cn2ccnc2)c2ccc(Cl)cc2Cl)cc1 (centres undefined)
Output: active

Input: Could you check what this test reported for O=C1NCN(c2ccccc2)C12CCN(CC1COc3ccccc3O1)CC2 (centres undefined) ?
Output: inactive

Input: Short answer needed: outcome of this test for O=P1(NCCCl)OCCCN1CCCl (centres undefined) ?
Output: inactive

Input: Hi, do you know how CC(C)(C)CC(C)(C)c1ccc(O)cc1 came out in this test?
Output: inactive

Input: Which outcome did this test record for the compound c1ccc2c(c1)Nc1ccccc1S2 ?
Output: inactive

Input: Field: outcome | Entry: CCCN1CCC[C@@H]2Cc3[nH]ncc3C[C@H]21
Output: inactive

Input: Record lookup: outcome of this test for CCC1(C2=NCCN2)Cc2ccccc2O1 (centres undefined) ?
Output: inactive

Input: Can you look up the reported call for COc1ccc(C(CN(C)C)C2(O)CCCCC2)cc1 (centres undefined) for me?
Output: inactive

Input: Look up the recorded call for CCC(C(N)=O)N1CCCC1=O (centres undefined) in this test.
Output: inactive

---

- method-description: Cell Viability - LYMP2-007 (AID 979);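 note: cells exposed to compound for 24 h before reading; nearly all actives have a fitted effect of over 60% in size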
- stated-conditions: LYMP2-007 lymphoblastoid cell viability; series mostly up to 92.2 µM
Inconclusive results are not listed. The source made the active and inactive calls. The call rests on the fitted dose curve; in most records, active means well fitted cell-killing curve with a large enough effect; inconclusive means small, poorly fitted or top-dose-only effect; inactive means flat fitted curve, though single readings scatter.
Hi! Could you answer with just one of these? true (1) (active), false (0) (inactive)

Would you please look over these solved cases?
> print(dat)
                                   molecule      class
1  CCCC(C)(COC(N)=O)COC(=O)NC(C)C (configuration not stated)  false (0)
2     N[C@@H](Cc1ccc(N(CCCl)CCCl)cc1)C(=O)O   true (1)
3  CC(COc1ccccc1)N(CCCl)Cc1ccccc1 (configuration not stated)   true (1)
4                           Oc1cccc2cccnc12   true (1)
5                        Oc1ccccc1-c1ccccc1  false (0)

Input: Record request — test call for OCCOc1ccccc1
Output: false (0)

Input: Assay result, entry Clc1ccc(COC(Cn2ccnc2)c2ccc(Cl)cc2Cl)cc1 (configuration not stated) — outcome?
Output: true (1)

---

- method-description: Primary qHTS for Huh7 cytotoxicity: counterscreen for inhibitors of MERS-S pseudotyped particle cell entry (AID 1479147)
- stated-conditions: cell viability read-out; series mostly up to 57.1 µM
Records with an inconclusive call do not appear. Activity calls are given as the source filed them. Calls follow the shape of the full dose curve.
Use one of these outcomes when replying: active, inactive

Solved entries (count: 4):
> print(dat)
                                   compound     class
1              CC1=NS(=O)(=O)c2cc(Cl)ccc2N1  inactive
2      C=C(CC)C(=O)c1ccc(OCC(=O)O)c(Cl)c1Cl  inactive
3  O=C1C(=O)c2ccccc2C(O)=C1C1CCC(c2ccc(Cl)cc2)CC1 (stereo not drawn)  inactive
4               CN(C)c1nc(N(C)C)nc(N(C)C)n1  inactive

Input: Entry CNCCCN1c2ccccc2CCc2ccccc21 : call = ?
Output: inactive

Input: Write down the call the test reported for this compound. Item: Oc1cccc2cccnc12
Output: inactive

Input: GET /call?item= CC(=O)OCC(CCn1cnc2cnc(N)nc21)COC(C)=O returns the recorded outcome of this test.
Output: inactive

Input: Which outcome was entered for the compound COc1cc(Nc2c(C#N)cnc3cc(OCCCN4CCN(C)CC4)c(OC)cc23)c(Cl)cc1Cl in this test?
Output: active

Input: State the result this test recorded for N[C@@H]1CONC1=O .
Output: inactive

Input: Called result for Cc1cn([C@H]2C=C[C@@H](CO)O2)c(=O)[nH]c1=O
Output: inactive

Input: Recorded call for CC(=O)SC[C@@H](C)C(=O)N1CCC[C@H]1C(=O)N[C@@H](Cc1ccccc1)C(=O)O ?
Output: inactive

Input: Per the assay record, what outcome was assigned to O=c1n(CCCN2CCN(c3cccc(Cl)c3)CC2)nc2ccccn12 ?
Output: inactive

Input: # fetch the recorded call for Cc1ncc(CNC(=O)N(CCCl)N=O)c(N)n1 here
Output: inactive
